A compilation of pIC50 values for UniProtKB P15121 from the published literature.
pIC50: −log10 of the molar value.
Value Type: pIC50

O=c1ccc(S(=O)(=O)c2oc3ccc(Cl)cc3c2-c2ccccc2)n[nH]1; 7.47
O=c1ccc(S(=O)(=O)c2cc3cccc(Cl)c3[nH]2)n[nH]1; 6.35
O=c1ccc(S(=O)(=O)c2cc3ccccc3s2)n[nH]1; 6.74
O=c1ccc(S(=O)(=O)Cc2ccccc2)n[nH]1; 6.22
O=C(/C=C/c1ccc(O)c(O)c1)OCCc1ccccc1; 5.45
O=c1ccc(S(=O)(=O)c2cccc(C(F)(F)F)c2)n[nH]1; 6.76
Cc1ccc(NC(=O)CN2C(=O)NC3(CCCCC3)C2=O)cc1; 4.99
COc1cc(O)cc(CCc2ccc(O)c(O)c2)c1; 3.75

I. O=c1ccc(S(=O)(=O)c2ccc(F)cc2)n[nH]1
II. Cc1c(S(=O)(=O)c2ccc(O)nn2)oc2ccc(F)cc12
INPUT: Consider entries I and II . Which has the numerically lower pIC50? # answer = label of selected item
OUTPUT: I
(I: 6.32, II: 8.52)
